Cited source for all entries: PubChem BioAssay (NCI)

- Tested on: KM12 colon
- Assay name: NCI-60 one-dose screen, 48 h (100 = growth as untreated, 0 = no growth, -100 = all killed)
- Study conditions: 10 µM unless noted
- Procedure: Growth inhibition of the KM12 human tumor cell line is measured as a screen for anti-cancer activity. Cells are grown in 96 well plates and exposed to the test compound for 48 hours. Compounds are tested at a single concentration, which is 10^-5 M for most compounds. The reported endpoint is percent growth (GI% or GIPRCNT), where numbers from 0 - 100% represent growth inhibition, and numbers from -100% - 0 represent cell death. For example, a value of 40 represents 60% growth inhibition. […]
About 83,000 compounds went through this panel and 20% of them were active in at least one assay; those are over-represented in the sample as a whole.
Exercise: state measured growth for each of the molecules provided.
Give your result in % as a bare value.

What value of growth has been recorded for this entry: "OCc1cnccc1NCCCCOc1ccc(Oc2ccccc2)cc1"
64.8

What value of growth has been recorded for this entry: "C[C@H]1[C@H](C)CC[C@]2(C(=O)NCC#CCN3CCN(C)CC3)CC[C@]3(C)C(=CC[C@@H]4[C@@]5(C)Cc6c([nH]c7ccccc67)C(C)(C)[C@@H]5CC[C@]43C)[C@H]12"
75.2

What value of growth has been recorded for this entry: "COc1cc(-c2n/c(=C\c3c(O)[nH]c4ccc(Cl)cc34)cc3c2=Nc2ccccc2-3)ccc1F"
4.87

What value of growth has been recorded for this entry: "CNC(=O)c1cncc(Cn2nc(C)c(NC(=O)c3ccc(COc4ccc(C(F)(F)F)cc4C)cc3)c2C)c1"
74.8

What value of growth has been recorded for this entry: C/C=C(\C)C(=O)NC1=CC[C@@]2(C)C(=CCC3C2CC[C@@]2(C)C3CC[C@@H]2C(C)N(C)C)C1=O (stereo partly drawn)
19.6

What value of growth has been recorded for this entry: "COc1cc2oc(-c3cccc(C(=O)Nc4ccc(Br)cc4)c3)cc(=O)c2c(OC)c1OC"
46.6

What value of growth has been recorded for this entry: "CCCCCCCCOc1ccc(/C=N/Nc2cc(C)nc3ccc(Br)cc23)cc1"
57

What value of growth has been recorded for this entry: COc1ccc(/C=N/NC(=O)c2cnn3c2NC(c2ccccc2)C3)cc1OC (stereo not drawn)
44.6
